tested on: Bacillus subtilis; test: cleaved RNA product abundance (RNA/gDNA barcode ratio) relative to median wild-type variant (ratio to wild type); higher = more accumulation of the downstream cleavage product; details: experiment (reporter, strain, medium): exp 4a: truncated aprE reporter, strain BJT201 with 2% xylose (RNase J1 expressed); cleavage site: cggR-gapA (positions -7 to +36 mutated)
Attribute: cleaved RNA product abundance
Answer field: number only, no words.

Examples with their reported cleaved RNA product abundance follow.
{"columns": ["query sequence", "cleaved RNA product abundance"],
 "data": [
  ["ACAGACGAAGGAGCCGCAAAGAAGTTATTAAGGGATGAATAATCCCTCAACATAAACATCTCTCACTTATTTAAA", 0.215],
  ["ACAGACGAAGGAGCCGCAAAGAAGTTATTAAGGGATGCATAATCCCTCAATATAAATATCTCTCACTTATTTAAA", 0.844],
  ["ACAGACGAAGGAGCCGCAAAGAAGTTATTAAGGAAGGAATAATCCCTCAATATAAATATCTCTCACTTATTTAAA", 0.233]
]}

For the next question, use this sequence.
If you can, please state the reported cleaved RNA product abundance value of `ACAGACGAAGGAGCCGCAAAGAAGTTATAAAGGGATGCATAATCCCTCAATATAAATATCTCTCACTTATTTAAA` .
0.241
